Numbers sourced from ChEMBL document CHEMBL3864181.

ASSAY: Binding affinity to human His6-tagged SETD8 (192 to 352 residues) C302S mutant in PBS buffer in presence of SAM by ITC assay
pKd: −log10 of the molar value. Where a SMILES comes first, the peptide text is derived from it. [ ]: non-standard residue; d: D form. ξ: configuration not given here. ξCha = NC(CC1CCCCC1)C(=O)O; Nle = CCCC[C@H](N)C(=O)O; ξI = CCC(C)C(N)C(=O)O; ξNle = CCCCC(N)C(=O)O
METRIC: pKd

Worked examples, 2 molecules total:
CCCC[C@H](NC(=O)[C@H](CCCNC(=N)N)NC(=O)[C@H](Cc1cnc[nH]1)NC(=O)[C@H](CCCNC(=N)N)NC(=O)[C@H](CCCCN)NC(C)=O)C(=O)N[C@H](C(=O)NC(CC1CCCCC1)C(=O)N[C@@H](CCCNC(=N)N)C(=O)O)C(C)C (some centres undefined) (Ac-KRHR[Nle]V[ξCha]R-OH) ... 6.92
CCCC[C@H](NC(=O)[C@H](CCCNC(=N)N)NC(=O)[C@H](Cc1cnc[nH]1)NC(=O)C(NC(=O)[C@H](CCCCN)NC(C)=O)C(C)CC)C(=O)N[C@H](C(=O)N[C@@H](CC(C)C)C(=O)N[C@@H](CCCNC(=N)N)C(=O)O)C(C)C (some centres undefined) (Ac-K[ξI]HR[Nle]VLR-OH) ... 5.25

A = CCCCC(NC(=O)[C@H](CCCNC(=N)N)NC(=O)[C@H](Cc1cnc[nH]1)NC(C)=O)C(=O)N[C@H](C(=O)N[C@@H](CC(C)C)C(N)=O)C(C)C (some centres undefined) (Ac-HR[ξNle]VL-NH2)
B = CCCCC(NC(=O)[C@H](CCCNC(=N)N)NC(=O)[C@H](Cc1cnc[nH]1)NC(=O)[C@H](CCCNC(=N)N)NC(C)=O)C(=O)N[C@H](C(=O)N[C@@H](CC(C)C)C(=O)N[C@@H](CCCNC(=N)N)C(N)=O)C(C)C (some centres undefined) (Ac-RHR[ξNle]VLR-NH2)
Query block: // compare measured pKd, left A , right B , return larger Use the label to indicate which entry you chose.
Result block: B
(B: 6.46, A: 4.82)
